System: ABL or ARG
Test: Probe-based (AX9989) kinase profiling in Jurkat lysate: ABL or ARG
Format: binding
Conditions: screening concentration 1 μM
Property label: ABL or ARG Inhibition % at indicated screening concentration

Answered examples (5):
CCOc1cc(C(=O)N2CCN(C(C)=O)CC2)ccc1Nc1cc2c(cn1)N(C)C(=O)c1ccccc1N2C: E (E is ≦35%)
CC(C)Oc1cc(C(=O)N2CCN(C3CCN(C)CC3)CC2)ccc1Nc1cc2c(cn1)N(C)C(=O)c1ccccc1N2C: E (E is ≦35%)
CCOc1cc(C(=O)N2CCN(C(C)=O)CC2)ccc1Nc1cc2c(cn1)N(C)C(=O)c1ccccc1N2C1CC1: E (E is ≦35%)
CCOc1cc(C(=O)N2CCN(C(C)=O)CC2)ccc1Nc1cc2c(cn1)N(C)C(=O)c1scnc1N2C: E (E is ≦35%)
CCOc1cc(C(=O)N2CCC(NC(C)C)C2)ccc1Nc1cc2c(cn1)N(C)C(=O)c1ccccc1N2C (stereo not shown): E (E is ≦35%)

Query: # return recorded ABL or ARG Inhibition % at indicated screening concentration for input "CCOc1cc(C(=O)N2CCC(N3CC[C@@H](O)C3)CC2)ccc1Nc1cc2c(cn1)N(C)C(=O)c1ccccc1N2C"
Reply: E (E is ≦35%)

Query: # return recorded ABL or ARG Inhibition % at indicated screening concentration for input "CN1C(=O)c2ccccc2N(S(C)(=O)=O)c2cc(N[C@H]3CC[C@H](O)CC3)ncc21"
Reply: E (E is ≦35%)
